Assay: qHTS for differential inhibitors of proliferation of Plasmodium falciparum line 7G8 (AID 1815);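 note: parasite growth measured after three days of incubation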
Settings: Plasmodium falciparum 7G8 proliferation inhibition; series mostly up to 28.7 µM
Records with an inconclusive call do not appear. Active and inactive are the calls of the source. Calls come from the whole dose curve; as a rule, active = well fitted curve in the direction sought with a large enough effect; inconclusive = small, poorly fitted or top-dose-only effect, or another doubt; inactive = no such curve, though single readings can be large or run the other way.
Possible outcomes: YES for active, NO for inactive

{"COMPOUND": "O=C(O)CC[C@@H](C(=O)O)N1C(=O)c2ccccc2C1=O", "CATEGORY": "NO"}
{"COMPOUND": "Cc1cc(NC(=O)Nc2ccc3c(ccn3C)c2)sn1", "CATEGORY": "YES"}
{"COMPOUND": "Cc1ccccc1CNc1ncnc2c1ncn2C1OC(CO)C(O)C1O (stereo unspecified)", "CATEGORY": "NO"}
{"COMPOUND": "C[C@@H](CN1CCC(Cc2ccccc2)CC1)[C@@H](O)c1ccc(O)cc1", "CATEGORY": "YES"}
{"COMPOUND": "CN(C)c1nc2c(Br)c(Br)c(Br)c(Br)c2[nH]1", "CATEGORY": "NO"}
{"COMPOUND": "CCCCN1CCC(n2c(=O)[nH]c3ccccc32)CC1", "CATEGORY": "NO"}
{"COMPOUND": "O=C(O)/C=C/C(O)c1ccc(Cl)cc1 (stereo unspecified)", "CATEGORY": "NO"}
{"COMPOUND": "O=c1[nH]c2cc([N+](=O)[O-])c([N+](=O)[O-])cc2[nH]c1=O", "CATEGORY": "NO"}
{"COMPOUND": "C[N+](C)(CCCCCC[N+](C)(C)CCCN1C(=O)c2cccc3cccc(c23)C1=O)CCCN1C(=O)c2cccc3cccc(c23)C1=O", "CATEGORY": "YES"}
{"COMPOUND": "CN1CCc2ccccc2Cc2[nH]c3ccccc3c2CC1", "CATEGORY": "YES"}
{"COMPOUND": "Nc1ccn([C@@H]2O[C@H](CO)[C@@H](O)[C@@H]2O)c(=O)n1", "CATEGORY": "NO"}
